This collection of values is drawn from paper PMC5607274.

assayed-target: human recombinant Yes [a.a. 2–543 (end)] (Homo sapiens, UniProt P07947)
Construct: human recombinant Yes [a.a; 2–543 (end)]; purchased BPS Bioscience 40488
Sequence (P07947 2-543): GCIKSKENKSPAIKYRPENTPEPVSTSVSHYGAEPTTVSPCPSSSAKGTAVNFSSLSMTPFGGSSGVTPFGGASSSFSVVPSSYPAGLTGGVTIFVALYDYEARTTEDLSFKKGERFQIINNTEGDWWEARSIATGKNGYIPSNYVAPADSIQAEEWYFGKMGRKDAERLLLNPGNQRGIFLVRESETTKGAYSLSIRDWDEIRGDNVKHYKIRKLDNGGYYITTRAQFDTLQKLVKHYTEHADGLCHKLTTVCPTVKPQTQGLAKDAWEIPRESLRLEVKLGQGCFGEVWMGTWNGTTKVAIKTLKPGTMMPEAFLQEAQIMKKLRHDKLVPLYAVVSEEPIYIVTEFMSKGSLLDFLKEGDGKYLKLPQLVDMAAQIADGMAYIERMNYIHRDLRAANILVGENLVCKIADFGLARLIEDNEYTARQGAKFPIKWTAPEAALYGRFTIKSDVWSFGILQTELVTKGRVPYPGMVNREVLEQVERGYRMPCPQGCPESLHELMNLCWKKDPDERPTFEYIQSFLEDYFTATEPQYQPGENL
measurement-protocol: ADP-Glo kinase assay, inhibition rates of Yes phosphorylation activity (first and second screening)
Assay type: biochemical
study-conditions: first screening; mean of n = 4 wells; 10 μmol L−1 compound

{"columns": ["compound", "First screening IR (inhibition rate)"],
 "data": [
  ["COc1ccc2c(c1)c(CC(=O)OCc1ncc(Cl)n1C)c(C)n2C(=O)c1ccc(Cl)cc1 [Compound Z148531038]", "0%"],
  ["CCN(CC)S(=O)(=O)c1ccc(S(N)(=O)=O)cc1 [Compound Z45415602]", "1%"],
  ["CS(=O)(=O)c1ccc(S(=O)(=O)N2CCCC2)cc1 [Compound Z285664940]", "8%"],
  ["CCN(CC(C)C)c1ccc(S(C)(=O)=O)cc1S(C)(=O)=O [Compound Z666139280]", "7%"],
  ["C=CCN(CC(=O)Nc1ccc(S(=O)(=O)N(CC)CC)cc1)Cc1cccs1 [Compound Z89203975]", "16%"]
]}

----------
assayed-target: human recombinant Yes [a.a. 2–543 (end)] (Homo sapiens, UniProt P07947)
Construct: human recombinant Yes [a.a; 2–543 (end)]; purchased BPS Bioscience 40488
measurement-protocol: ADP-Glo kinase assay, inhibition rates of Yes phosphorylation activity (first and second screening)
Format: biochemical
study-conditions: first screening; mean of n = 4 wells; 10 μmol L−1 compound
readout-name: First screening IR (inhibition rate) (%)

{"columns": ["compound", "readout-name", "number"],
 "data": [
  ["NC(=O)Nc1ccc(C(=O)NCCC(c2ccccc2)c2ccccc2)cc1", "First screening IR (inhibition rate)", -8],
  ["Cc1noc(C)c1COc1ccccc1C(=O)NCCSc1ccc(Cl)cc1", "First screening IR (inhibition rate)", 17],
  ["COC(=O)c1cc(-c2ccc(F)cc2)nc2c1c(C)nn2C1CCS(=O)(=O)C1 (stereo not shown)", "First screening IR (inhibition rate)", -1],
  ["CCCN1CCN(c2ccc(S(=O)(=O)NC3CCC(C)CC3)cc2[N+](=O)[O-])CC1 (stereo not shown)", "First screening IR (inhibition rate)", -14],
  ["CCCN1CCN(c2ccc(Nc3ccc4nnnn4n3)cc2Cl)CC1", "First screening IR (inhibition rate)", -24],
  ["Cc1cc(C)c(C(=O)CSc2nnc(-c3c[nH]c4ccccc34)n2CC2CCCO2)c(C)c1 (stereo not shown)", "First screening IR (inhibition rate)", -1],
  ["Cc1cccc(C(C)C)c1NC(=O)CSc1nc2ccc(Cl)cc2[nH]1", "First screening IR (inhibition rate)", 4],
  ["O=C(Nc1n[nH]c(-c2ccc(F)cc2)n1)c1csc2c1CCCC2", "First screening IR (inhibition rate)", -5],
  ["Cc1ccc(C)c(CN2CCN(c3nc4c(c(=O)[nH]c(=O)n4C)n3C/C=C/c3ccccc3)CC2)c1", "First screening IR (inhibition rate)", 5],
  ["CC(=O)Nc1ccc(/C=C/C(=O)c2ccccc2-n2cccn2)cc1", "First screening IR (inhibition rate)", -15],
  ["CC(C)(C)c1[nH]ncc1/C=C1/CCn2c1nc1cc(Cl)ccc1c2=O", "First screening IR (inhibition rate)", -3],
  ["Cl.Fc1ccccc1-c1c2c(nc3ccc(Cl)cc13)-c1ccccc1CC2", "First screening IR (inhibition rate)", 15],
  ["CCC(NC(=O)c1cc(C)nc2c1cnn2C(C)C)c1ccc(C)cc1 (stereo not shown)", "First screening IR (inhibition rate)", -5],
  ["CC(C)(C)NC(=O)CN1CCN(C(=O)CSc2nc3ccccc3c(=O)n2-c2ccccc2)CC1", "First screening IR (inhibition rate)", 57],
  ["COc1ccc(C(N)=O)c(OCc2nc3ccccc3nc2C)c1", "First screening IR (inhibition rate)", 35],
  ["O=C(NCc1ccncc1)c1cnn(-c2ccc(Cl)cc2)c1C(F)(F)F", "First screening IR (inhibition rate)", 6]
]}
